Reported activation values are given for each entry in this list.
Test: qHTS Assay for Identification of Small Molecule Agonists for Hypoxia Response Element Signaling Pathway (AID 914); also: % of control where 0% means no effect
Details: ME-180 (cervical carcinoma) HRE-bla reporter, beta-lactamase ratio, CoCl2, 17 h; hits give high values
Text: NIH Molecular Libraries Screening Centers Network [MLSCN] NIH Chemical Genomics Center [NCGC] Hypoxia-inducible factor-1 (HIF-1) is the major hypoxia-regulated transcription factor that controls cellular responses to low oxygen concentration. HIF-1 is composed of two subunits: hypoxia responsive HIF-1 alpha and constitutively expressed HIF-1 beta, which is also known as aryl hydrocarbon receptor nuclear translocator. […]
Results filed as inconclusive are left out.
property_name: activation (%)

INSERT INTO measurements (structure_smiles, unit_annotation, val) VALUES
  ('COc1ccc(N(CC(=O)O)N=O)cc1', '%', 10.3),
  ('CN1CCN(c2ccncc2S(=O)(=O)N2CCN(C)CC2)CC1', '%', 7.59),
  ('OC[C@H](CCc1c[nH]c2ccccc12)c1c[nH]c2ccccc12', '%', -29.3),
  ('c1cc(CSc2ncnc3nc[nH]c23)ccn1', '%', -3.44),
  ('O=C(O)CC[C@@]1(c2ccccc2)NC(=O)NC1=O', '%', -0.349),
  ('Cc1[nH]n(-c2ccc(S(=O)(=O)O)cc2)c(=O)c1N=Nc1ccccc1', '%', 27.8),
  ('C[C@@](N)(/C=C\c1ccccc1)C(=O)O', '%', -2.86),
  ('CCCCn1cnc2c(c(CC#N)nn2-c2ccccc2)c1=N', '%', 16.2),
  ('COc1ccc(CCCC(=O)O)c(C)c1', '%', -8.35);

Just for reference, PubChem BioAssay (NCATS) is where these values come from.
